biological target: Recombinant human TRKC (Homo sapiens); assay: In vitro activity test on TRKC kinase (HTRF KinEASE TK); conditions: 25.64 μM ATP, 40 min
Sequence (Q16288 32-839): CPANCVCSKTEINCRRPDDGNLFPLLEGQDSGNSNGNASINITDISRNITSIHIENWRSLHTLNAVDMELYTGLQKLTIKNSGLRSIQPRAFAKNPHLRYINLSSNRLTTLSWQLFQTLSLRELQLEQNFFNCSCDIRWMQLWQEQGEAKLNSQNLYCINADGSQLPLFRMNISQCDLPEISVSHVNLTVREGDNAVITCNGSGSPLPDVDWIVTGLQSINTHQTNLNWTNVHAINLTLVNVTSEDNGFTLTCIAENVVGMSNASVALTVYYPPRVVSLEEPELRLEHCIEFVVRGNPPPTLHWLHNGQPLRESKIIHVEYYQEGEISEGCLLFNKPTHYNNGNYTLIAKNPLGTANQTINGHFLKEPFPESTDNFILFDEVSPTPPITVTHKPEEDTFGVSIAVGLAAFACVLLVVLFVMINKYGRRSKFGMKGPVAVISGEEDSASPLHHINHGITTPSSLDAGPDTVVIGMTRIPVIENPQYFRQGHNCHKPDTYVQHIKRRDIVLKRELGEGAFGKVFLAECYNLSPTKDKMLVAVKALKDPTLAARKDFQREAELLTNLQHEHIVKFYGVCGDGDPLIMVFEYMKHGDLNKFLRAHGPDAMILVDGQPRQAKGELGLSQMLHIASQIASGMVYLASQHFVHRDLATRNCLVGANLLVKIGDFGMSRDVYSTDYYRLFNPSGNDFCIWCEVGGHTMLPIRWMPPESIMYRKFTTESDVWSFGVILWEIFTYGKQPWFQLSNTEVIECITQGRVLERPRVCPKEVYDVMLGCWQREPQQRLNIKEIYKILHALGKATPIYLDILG
Listed here are compounds together with their documented IC50.

Use the examples below as a reference point.
{"columns": ["Compound smiles", "Experimental system", "IC50"],
 "data": [
  ["OC1CCN(c2nc(-c3c(F)cnc4ccc(N5C[C@@H](F)C[C@@H]5c5cc(F)ccc5F)nc34)no2)CC1", "Recombinant human TRKC (Homo sapiens)", "< 1 nM"],
  ["O=C(Nc1ccnc2ccc(N3C[C@@H](F)C[C@@H]3c3cc(F)ccc3F)nc12)N1CC[C@H](O)C1", "Recombinant human TRKC (Homo sapiens)", "< 1 nM"],
  ["O[C@H]1CCN(c2ccnc3ccc(N4CCC[C@@H]4c4cc(F)ccc4F)nc23)C1", "Recombinant human TRKC (Homo sapiens)", "< 150 nM"],
  ["OC[C@H](O)CN1CCC(n2cc(-c3c(Cl)cnc4ccc(N5C[C@@H](F)C[C@@H]5c5cc(F)ccc5F)nc34)cn2)CC1", "Recombinant human TRKC (Homo sapiens)", "< 1 nM"],
  ["Fc1ccc(F)c([C@H]2C[C@H](F)CN2c2ccc3ncc(Cl)c(-c4nnc(C5CCNCC5)o4)c3n2)c1", "Recombinant human TRKC (Homo sapiens)", "< 1 nM"]
]}

Request: Record lookup: for Recombinant human TRKC (Homo sapiens), what IC50 belongs to `O[C@H]1CN=C(Nc2ccnc3ccc(N4C[C@@H](F)C[C@@H]4c4cc(F)ccc4F)nc23)OC1` ?
Result: < 10 nM

Request: Record lookup: for Recombinant human TRKC (Homo sapiens), what IC50 belongs to `CN1CCC(n2cc(-c3ccnc4ccc(N5C[C@@H](F)C[C@@H]5c5cc(F)ccc5F)nc34)cn2)CC1` ?
Result: < 1 nM

Request: Record lookup: for Recombinant human TRKC (Homo sapiens), what IC50 belongs to `O[C@@H]1CCN(c2ccc(-c3c(Cl)cnc4ccc(N5C[C@@H](F)C[C@@H]5c5cc(F)ccc5F)nc34)cn2)C1` ?
Result: < 10 nM

Request: Record lookup: for Recombinant human TRKC (Homo sapiens), what IC50 belongs to `O=S(=O)(Nc1ccnc2ccc(N3C[C@@H](F)C[C@@H]3c3cc(F)ccc3F)nc12)N1CC[C@H](O)C1` ?
Result: < 1 nM

Request: Record lookup: for Recombinant human TRKC (Homo sapiens), what IC50 belongs to `Fc1ccc(F)c([C@H]2C[C@H](F)CN2c2ccc3ncnc(-n4cc(C5CCNCC5)cn4)c3n2)c1` ?
Result: < 1 nM

Request: Record lookup: for Recombinant human TRKC (Homo sapiens), what IC50 belongs to `Fc1ccc(F)c([C@H]2C[C@H](F)CN2c2ccc3nccc(-c4cnn(C5CCOCC5)c4)c3n2)c1` ?
Result: < 1 nM

// provenance: patent US20220017512A1
